Tested on: FLT1;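 note: KINOMEscan kinase panel screen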
Details: concentration: 1 μM, replicates: in singlicate; n = 1
%Inh vs 50%: at or above is condition met, below is condition not met.

• O=C(Nc1n[nH]c2cc(-c3cccs3)ccc12)C1CC1 [SB-731284] = condition not met

Q: Check if %Inh >= 50% (inclusive). Item: CN(C)CCOc1ccc(-c2cc(-c3ccc(Cl)c(O)c3)c(-c3ccncc3)[nH]2)cc1.Cl.Cl [SB-684387]
Ans: condition not met

Q: Check if %Inh >= 50% (inclusive). Item: COc1cccc(-c2nc(-c3ccccc3)[nH]c2-c2ccncc2)c1 [SB-610250]
Ans: condition not met

FYI, the data here is from paper PMC5540273.
